// provenance: PubChem BioAssay AID1963860

Test system: CN0375-F725-PDC KRAS spheroid viability
assay: Anticancer human tumor CN0375-F725-PDC patient-derived colon carcinoma cell line growth inhibition [KRAS2]
conditionLabel: second compound 0.316 µM; first compound 0.1 µM; hits give low values; spheroids with HUVEC and MSC
The compounds listed here are annotated with their viability, T/C.
Form entry: value (%) — number only.

Below, each entry is followed by its recorded viability, T/C result.
CN(C)C/C=C/C(=O)Nc1cc2c(Nc3ccc(F)c(Cl)c3)ncnc2cc1O[C@H]1CCOC1 + CNCc1ccccc1-c1csc(C(C)Nc2nc(C)nc3cc(OC)c(OC)cc23)c1; 70.5
CC1(C)CCC(CN2CCN(c3ccc(C(=O)NS(=O)(=O)c4ccc(NCC5CCOCC5)c([N+](=O)[O-])c4)c(Oc4cnc5[nH]ccc5c4)c3)CC2)=C(c2ccc(Cl)cc2)C1 + C=CC(=O)N1CCN(c2nc(=O)n(-c3c(C)ccnc3C(C)C)c3nc(-c4c(O)cccc4F)c(F)cc23)C(C)C1; 115
COc1cc(Nc2ncc3c(n2)-c2ccc(Cl)cc2C(c2c(F)cccc2OC)=NC3)ccc1C(=O)O + COc1cc2nc(C)nc(NC(C)c3cc(N)cc(C(F)(F)F)c3)c2cc1OC1CCOC1; 97.6
CC(C)n1nc(-c2ccc3oc(N)nc3c2)c2c(N)ncnc21 + C=CC(=O)N1CCN(c2nc(=O)n(-c3c(C)ccnc3C(C)C)c3nc(-c4c(O)cccc4F)c(F)cc23)C(C)C1; 44.5
CC1COCCN1c1cc(-c2ccnn2C)c2ccnc(-c3ccn[nH]3)c2n1 (stereo not given) + COc1cc2nc(C)nc(NC(C)c3cc(N)cc(C(F)(F)F)c3)c2cc1OC1CCOC1; 76
CCNC(=O)CC1N=C(c2ccc(Cl)cc2)c2cc(OC)ccc2-n2c(C)nnc21 (stereo not given) + CC1OCC2(CCN(c3cnc(Sc4ccnc(N)c4Cl)c(N)n3)CC2)C1N; 78.9

Now let's try a different one.
Enquiry: Specify measured viability, T/C for CC1(C)CCC(CN2CCN(c3ccc(C(=O)NS(=O)(=O)c4ccc(NCC5CCOCC5)c([N+](=O)[O-])c4)c(Oc4cnc5[nH]ccc5c4)c3)CC2)=C(c2ccc(Cl)cc2)C1 + C=CC(=O)N1CCN(c2nc(OCC3CCCN3C)nc3c2CCN(c2cccc4cccc(C)c24)C3)CC1CC#N .
Return: 108

* * *

Test system: CN0375-F725-PDC KRAS spheroid viability
assay: Anticancer human tumor CN0375-F725-PDC cell line growth inhibition [KRAS2];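 note: spheroids exposed to agents for 7 days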
conditionLabel: second compound 0.1 µM; first compound 0.316 µM; hits give low values; spheroids with HUVEC and MSC
measure: viability, T/C (%)
Form entry: value (%) — number only.

Below, each entry is followed by its recorded viability, T/C result.
COC(=O)c1ccc2c(C(=Nc3ccc(N(C)C(=O)CN4CCN(C)CC4)cc3)c3ccccc3)c(O)[nH]c2c1 + CNCc1ccccc1-c1csc(C(C)Nc2nc(C)nc3cc(OC)c(OC)cc23)c1; 86.6
CC1COCCN1c1cc(-c2ccnn2C)c2ccnc(-c3ccn[nH]3)c2n1 (stereo not given) + COc1cc2nc(C)nc(NC(C)c3cc(N)cc(C(F)(F)F)c3)c2cc1OC1CCOC1; 78.3
CC1(C)CCC(CN2CCN(c3ccc(C(=O)NS(=O)(=O)c4ccc(NCC5CCOCC5)c([N+](=O)[O-])c4)c(Oc4cnc5[nH]ccc5c4)c3)CC2)=C(c2ccc(Cl)cc2)C1 + CC1OCC2(CCN(c3cnc(Sc4ccnc(N)c4Cl)c(N)n3)CC2)C1N; 104
COc1cc2nccc(Oc3ccc(NC(=O)C4(C(=O)Nc5ccc(F)cc5)CC4)cc3)c2cc1OC + CC1OCC2(CCN(c3cnc(Sc4ccnc(N)c4Cl)c(N)n3)CC2)C1N; 83.3

Enquiry: Specify measured viability, T/C for CC1COCCN1c1cc(-c2ccnn2C)c2ccnc(-c3ccn[nH]3)c2n1 (stereo not given) + CC1OCC2(CCN(c3cnc(Sc4ccnc(N)c4Cl)c(N)n3)CC2)C1N .
Return: 77.1
